Tested on: human bronchial epithelial cells, CFTR corrector, plate reader
Assay: rescue of ΔF508 CFTR function, airway epithelium – human bronchial epithelial cells, plate reader, cherry-pick, two tests, dose response (AID 743267)
Settings: measured here: test 2 replicate run
Assay metric: log10(AC50) (log10 of the value in µM)
Record value = log10 of AC50 given in µM.

CC(=O)O[C@H]1C(=O)[C@@]2(C)[C@H]([C@H](OC(=O)c3ccccc3)[C@]3(O)C[C@H](OC(=O)[C@H](O)C(NC(=O)c4ccccc4)c4ccccc4)C(C)=C1C3(C)C)[C@]1(OC(C)=O)CO[C@@H]1C[C@@H]2O (some centres undefined) | 0.56

// input: 3 compounds below; output: log10(AC50) for each
1. N#C/C(=C\c1ccccn1)c1nc2ccccc2s1
2. Cc1cccc(N(C)C(=O)c2cc3c(=O)[nH]c4ccc(C)cc4c3s2)c1
3. CCN(Cc1ccccc1)c1ccc(/C=N/N=C(N)N)cc1

1. 1.38
2. 0.67
3. 0.68

// data source = PubChem BioAssay AID743267
